Values from ChEMBL document CHEMBL1145417

# Tested on: KB
# experiment.notes: Cytotoxicity against human KB cells
# Format: functional, cell-based
Quick reference: IC50 of the listed items.
# number only, unit µg/mL dropped from output

Some entries whose results are on file:
# molecule, system.name, quantity.name, numeric.value
records = [
    ("Cc1c2ccncc2c(C)c2c1[nH]c1ccccc12", "KB", "IC50", 0.67),
    ("COc1cccc2c1C(=O)c1c(O)c3c(c(O)c1C2=O)C[C@@](O)(C(=O)CO)C[C@@H]3O[C@H]1C[C@H](N)[C@H](O)[C@H](C)O1", "KB", "IC50", 0.23),
    ("C=C/C(C)=C\\C[C@]1(C)[C@H](C)CC[C@@]23C(=C[C@H](OC(=O)CCC)C[C@@H]12)[C@@H](OC(C)=O)O[C@H]3OC(C)=O (relative stereo)", "KB", "IC50", 0.66),
]

Give the reported IC50 for this molecule. C=C/C(C)=C\C[C@]1(C)[C@H](C)CC[C@@]23C(=C[C@H](OC(=O)CCCCC)C[C@@H]12)[C@@H](OC(C)=O)O[C@H]3OC(C)=O (relative stereo)
0.88

Give the reported IC50 for this molecule. C=C/C(C)=C\C[C@]1(C)[C@H](C)C[C@H](O)[C@@]23C(=C[C@H](OC(=O)CCC)C[C@@H]12)[C@@H](OC)O[C@H]3OC(C)=O (relative stereo)
0.67

Give the reported IC50 for this molecule. C=C/C(C)=C\C[C@]1(C)[C@H](C)C[C@H](O)[C@@]23C(=C[C@H](OC(=O)CC(C)C)C[C@@H]12)[C@@H](OC(C)=O)O[C@H]3OC(C)=O (relative stereo)
6

Give the reported IC50 for this molecule. C=C/C(C)=C\C[C@]1(C)[C@H](C)C[C@H](O)[C@@]23C(=C[C@H](OC(=O)CCCCC)C[C@@H]12)[C@@H](OC(C)=O)O[C@H]3OC(C)=O (relative stereo)
3.04

----------
# Test system: NCI-H187
# experiment.notes: Cytotoxicity against human NCI-H187 cells
# Format: functional, cell-based
Quick reference: log10(IC50) of the listed items.
Answers are given as log10 of IC50 in µg/mL.

# compound, numeric.value
records = [
    ("C=C/C(C)=C\\C[C@]1(C)[C@H](C)CC[C@@]23C(=C[C@H](OC(=O)CCCCC)C[C@@H]12)[C@@H](OC(C)=O)O[C@H]3OC(C)=O (relative stereo) [CASEARGREWINS H]", -0.27),
    ("C=C/C(C)=C\\C[C@]1(C)[C@H](C)C[C@H](O)[C@@]23C(=C[C@H](OC(=O)CC(C)C)C[C@@H]12)[C@@H](OC(C)=O)O[C@H]3OC(C)=O (relative stereo) [CASEARGREWINS L]", -0.49),
    ("COc1cccc2c1C(=O)c1c(O)c3c(c(O)c1C2=O)C[C@@](O)(C(=O)CO)C[C@@H]3O[C@H]1C[C@H](N)[C@H](O)[C@H](C)O1 [DOXORUBICIN]", -1.32),
]

Give the reported log10(IC50) for this compound. C=C/C(C)=C\C[C@]1(C)[C@H](C)C[C@H](O)[C@@]23C(=C[C@H](OC(=O)CCC)C[C@@H]12)[C@@H](OC)O[C@H]3OC(C)=O (relative stereo) [CASEARGREWINS G]
0.75

Give the reported log10(IC50) for this compound. C=C/C(C)=C\C[C@]1(C)[C@H](C)C[C@H](O)[C@@]23C(=C[C@H](OC(=O)CCCCC)C[C@@H]12)[C@@H](OC(C)=O)O[C@H]3OC(C)=O (relative stereo) [CASEARGREWINS I]
-0.48
